The following compounds are listed with their measured cell viability values.
- Test system: NOMO1
- Method summary: cell viability relative to DMSO control; higher = less cytotoxic
- Details: HPLM + 10% dialyzed FBS; 48 h; 0.0211 µM

{"Smiles record": "C[C@H](CCC(=O)O)[C@H]1CC[C@H]2[C@@H]3[C@H](O)C[C@@H]4C[C@H](O)CC[C@]4(C)[C@H]3CC[C@]12C", "cell viability": "99.5%"}
{"Smiles record": "C[C@@H]1CC[C@@]2(CC[C@]3(C)\\C(=C/C[C@@H]4[C@@]5(C)CC[C@H](O)C(C)(C)[C@@H]5CC[C@@]34C)[C@@H]2[C@H]1C)C(O)=O", "cell viability": "113%"}
{"Smiles record": "COc1cc2c(cc1OC)[C@@H]1Cc3ccc(OC)c(OC)c3CN1CC2", "cell viability": "105%"}
{"Smiles record": "CNC(=O)c1ccc2c(c1)NC(=O)/C2=C(\\Nc1cccc(CN(C)C)c1)c1ccccc1", "cell viability": "100%"}
